Provide the recorded pKa for the entries that follow.
test: Dissociation constant, pKa of the compound by Analiza PRO analyzer based method; format: physicochemical
The answer should be written as a number, with no unit following it.

Problem: I am curious: what pKa value has been reported for CN[C@@H]1CCN(c2cc(CCC(F)(F)F)nc(N)n2)C1 ?
Solution: 7.8

Problem: Also check CN[C@@H]1CCN(c2cc(N)nc(NC(C)C)c2)C1
Solution: 6.5

Problem: Also check Nc1nc(NC2CCCC2)cc(C2CCNCC2)n1
Solution: 6.1

Problem: Also check Nc1cc(N2CCNCC2)cc(NC2CCCC2)n1
Solution: 6.5

Problem: Also check Nc1cc(C2CCNCC2)cc(OC2CCCC2)n1
Solution: 4.7

Problem: Also check CN[C@@H]1CCN(c2cc(C(F)F)nc(N)n2)C1
Solution: 4.4

Problem: Also check CN[C@@H]1CCN(c2cc(N)nc(NC(C)C)n2)C1
Solution: 6.3

Problem: Also check CN[C@@H]1CCN(c2cc(C(F)(F)F)nc(N)n2)C1
Solution: 3.1

Problem: Also check CN[C@@H]1CCN(c2ccnc(NC(C)C)n2)C1
Solution: 6.4

Problem: Also check CN[C@@H]1CCN(c2ccnc(NC(C)C)c2)C1
Solution: 6.6

Problem: Also check Nc1nc(C2CCCC2)cc(N2CCNCC2)n1
Solution: 7.9

Problem: Also check CN[C@@H]1CCN(c2cc(N)nc(C(C)C)n2)C1
Solution: 6.3

Problem: Also check CN[C@@H]1CCN(c2ccnc(C(C)C)n2)C1
Solution: 6.5

Problem: Also check Nc1nc(C2CCCC2)cc(C2CCNCC2)n1
Solution: 4.5

Problem: Also check CN[C@@H]1CCN(c2cc(CCl)nc(N)n2)C1
Solution: 6

Problem: Also check CCc1cc(N2CC[C@@H](NC)C2)nc(N)n1
Solution: 6.3

Problem: Also check Nc1cc(C2CCNCC2)cc(NC2CCCC2)n1
Solution: 6.1

Problem: Also check CN[C@@H]1CCN(c2cc(CF)nc(N)n2)C1
Solution: 5.5

Problem: Also check CN[C@@H]1CCN(c2cc(CC(F)(F)F)nc(N)n2)C1
Solution: 5.4

---

Provide the recorded log10 of Ki for the entries that follow.
target: Histamine H4 receptor (Homo sapiens); assay: Displacement of [3H]histamine from human recombinant histamine H4 receptor
Sequence (Q9H3N8 whole entry): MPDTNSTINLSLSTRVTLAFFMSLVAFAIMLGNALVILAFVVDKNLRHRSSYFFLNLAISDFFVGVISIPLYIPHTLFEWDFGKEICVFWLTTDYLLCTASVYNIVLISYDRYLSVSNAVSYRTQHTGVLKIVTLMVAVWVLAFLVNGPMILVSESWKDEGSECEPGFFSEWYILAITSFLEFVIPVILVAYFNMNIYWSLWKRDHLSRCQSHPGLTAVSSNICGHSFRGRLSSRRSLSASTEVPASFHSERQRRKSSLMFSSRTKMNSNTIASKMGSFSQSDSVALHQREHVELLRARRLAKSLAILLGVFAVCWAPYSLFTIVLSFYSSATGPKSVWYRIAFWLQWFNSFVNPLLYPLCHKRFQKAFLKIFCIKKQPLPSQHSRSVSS
Please keep in mind that the values are log10 of Ki expressed in µM.

Problem: // map CCc1cc(N2CC[C@@H](NC)C2)ncn1 to recorded log10 of Ki (system: Histamine H4 receptor (Homo sapiens))
Solution: -0.34

Problem: Also check Nc1cc(C2CCNCC2)cc(NC2CCCC2)n1
Solution: -1.30

Problem: Also check CN[C@@H]1CCN(c2cc(N)nc(C(C)C)n2)C1
Solution: -0.49

Problem: Also check Nc1nc(C2CCCC2)cc(C2CCNCC2)n1
Solution: 0.19

Problem: Also check CN[C@@H]1CCN(c2cc(N)nc(NC(C)C)c2)C1
Solution: -2.51

Problem: Also check Nc1cc(N2CCNCC2)cc(NC2CCCC2)n1
Solution: -2.70

Problem: Also check CN[C@@H]1CCN(c2ccnc(C(C)C)n2)C1
Solution: -0.34

Problem: Also check CN[C@@H]1CCN(c2cc(CCl)nc(N)n2)C1
Solution: -1.04

Problem: Also check CN[C@@H]1CCN(c2cc(CF)nc(N)n2)C1
Solution: -0.90

Problem: Also check CN[C@@H]1CCN(c2cc(CC(F)(F)F)nc(N)n2)C1
Solution: -1.96

---

test: Dissociation constant, pKa of the compound by potentiometric titration; type: physicochemical
EXPERIMENTAL READOUT: pKa
The answer should be written as a number, with no unit following it.

Problem: I am curious: what pKa value has been reported for CCc1cc(N2CC[C@@H](NC)C2)ncn1 ?
Solution: 5.9

Problem: Also check CN[C@@H]1CCN(c2cc(C(F)(F)F)nc(N)n2)C1
Solution: 3.1

Problem: Also check CCc1cc(N2CC[C@@H](NC)C2)nc(N)n1
Solution: 7.5

---

Provide the recorded Ki for the entries that follow.
biological target: UniProt Q9H3N8; experiment: Displacement of [3H]histamine from human recombinant histamine H4 receptor

Problem: I am curious: what Ki value has been reported for Nc1cc(C2CCNCC2)cc(OC2CCCC2)n1 ?
Solution: > 10 µM

Problem: Also check CN[C@@H]1CCN(c2cc(C(F)F)nc(N)n2)C1
Solution: > 10 µM

Problem: Also check Nc1nc(NC2CCCC2)cc(C2CCNCC2)n1
Solution: > 1 µM

Problem: Also check CN[C@@H]1CCN(c2cc(C(F)(F)F)nc(N)n2)C1
Solution: > 10 µM
